molecular target: NAD(P)H dehydrogenase [quinone] 1 (Homo sapiens); test: Substrate activity at recombinant human C-terminal His-tagged NQO1 (1 to 274 residues) expressed in Escherichia coli assessed as enzyme activity by measuring oxidation of NADPH incubated for 5 mins measured per micromol of enzyme every 5 sec for 1 mins by UV-visible spectrophotometry
assay-metric: Activity (µmol/min)

Consider the following illustrative entries.
compound	Activity (µmol/min)
COc1cc(C2CC(=O)NC3=C2C(=O)C(=O)c2ccccc23)cc(OC)c1OC (stereo unspecified)	684
CCCC1CC(=O)NC2=C1C(=O)C(=O)c1ccccc12 (stereo unspecified)	486
CC(C)C1CC(=O)NC2=C1C(=O)C(=O)c1ccccc12 (stereo unspecified)	786
O=C1CC(c2ccc(Cl)cc2)C2=C(N1)c1ccccc1C(=O)C2=O (stereo unspecified)	557

[A] O=C1CC(c2ccco2)C2=C(N1)c1ccccc1C(=O)C2=O (stereo unspecified)
[B] O=C1CC(C2CCCCC2)C2=C(N1)c1ccccc1C(=O)C2=O (stereo unspecified)
Problem: Sort A and B by Activity descending and give the first. Kindly give the label for the entry you pick.
Solution: A
(A: 613 µmol/min, B: 283 µmol/min)

###

molecular target: NAD(P)H dehydrogenase [quinone] 1 (Homo sapiens) (UniProt P15559); assay: Substrate activity at recombinant human C-terminal His-tagged NQO1 (1 to 274 residues) expressed in Escherichia coli assessed as enzyme activity by measuring oxidation of NADPH incubated for 5 mins measured per micromol of enzyme every 5 sec for 1 mins by UV-visible spectrophotometry
assay-metric: Activity (µmol/min)

molecule	Activity / µmol/min
O=C1CC(c2ccc(Cl)cc2Cl)C2=C(N1)c1ccccc1C(=O)C2=O (stereo unspecified)	760
O=C1CC(C2CCCC2)C2=C(N1)c1ccccc1C(=O)C2=O (stereo unspecified)	491
O=C1CC(c2cccs2)C2=C(N1)c1ccccc1C(=O)C2=O (stereo unspecified)	621
O=C1CC(c2ccccc2Cl)C2=C(N1)c1ccccc1C(=O)C2=O (stereo unspecified)	467
COc1cccc(C2CC(=O)NC3=C2C(=O)C(=O)c2ccccc23)c1 (stereo unspecified)	586
Cc1ccccc1C1CC(=O)NC2=C1C(=O)C(=O)c1ccccc12 (stereo unspecified)	448

[1] O=C1CC(c2ccc(F)cc2)C2=C(N1)c1ccccc1C(=O)C2=O (stereo unspecified)
[2] O=C1CC(c2ccc(F)cc2F)C2=C(N1)c1ccccc1C(=O)C2=O (stereo unspecified)
[3] O=C1CC(c2ccccc2F)C2=C(N1)c1ccccc1C(=O)C2=O (stereo unspecified)
[4] COc1ccc(OC)c(C2CC(=O)NC3=C2C(=O)C(=O)c2ccccc23)c1 (stereo unspecified)
[5] COc1ccc(C2CC(=O)NC3=C2C(=O)C(=O)c2ccccc23)cc1O (stereo unspecified)
Problem: # sort list by recorded Activity, greatest to least Would you mind listing the labels in the order requested?
Solution: 5, 3, 2, 1, 4
(5: 2770 µmol/min, 3: 1360 µmol/min, 2: 936 µmol/min, 1: 392 µmol/min, 4: 180 µmol/min)

###

molecular target: NAD(P)H dehydrogenase [quinone] 1 (Homo sapiens); assay: Substrate activity at recombinant human C-terminal His-tagged NQO1 (1 to 274 residues) expressed in Escherichia coli assessed as enzyme activity by measuring oxidation of NADPH incubated for 5 mins measured per micromol of enzyme every 5 sec for 1 mins by UV-visible spectrophotometry
assay-metric: Activity (µmol/min)

Consider the following illustrative entries.
compound	tested-on	assay-metric	observed-value
O=C1CC(c2ccc([N+](=O)[O-])cc2)C2=C(N1)c1ccccc1C(=O)C2=O (stereo not given)	NAD(P)H dehydrogenase [quinone] 1 (Homo sapiens)	Activity	182
COc1ccccc1C1CC(=O)NC2=C1C(=O)C(=O)c1ccccc12 (stereo not given)	NAD(P)H dehydrogenase [quinone] 1 (Homo sapiens)	Activity	354
O=C1CC(c2cc([N+](=O)[O-])ccc2Cl)C2=C(N1)c1ccccc1C(=O)C2=O (stereo not given)	NAD(P)H dehydrogenase [quinone] 1 (Homo sapiens)	Activity	195

[P] COc1cc(OC)cc(C2CC(=O)NC3=C2C(=O)C(=O)c2ccccc23)c1 (stereo not given)
[Q] O=C1CC(c2ccccc2)C2=C(N1)c1ccccc1C(=O)C2=O (stereo not given)
Problem: Sort P and Q by Activity descending and give the first. Kindly give the label for the entry you pick.
Solution: Q

###

test: Cytotoxicity against human L02 cells assessed as reduction in cell growth incubated for 48 hrs by MTT assay; format: cell-based
# maps each entry to its GI50 at 48 h
Answer in µM, number only, no unit symbol.

compound	unit-of-measurement	GI50 at 48 h
COc1ccc(C2CC(=O)NC3=C2C(=O)C(=O)c2ccccc23)cc1O (configuration not stated)	µM	4.36

Could you now consider this next compound?
Problem: Provide measured GI50 at 48 h value, entry: CC1(C)CCC2=C(O1)c1ccccc1C(=O)C2=O [LAPACHONE]
Solution: 4.54

###

test: Selectivity index, ratio of GI50 for human L02 cells to GI50 for human HepG2 cells measured after 48 hrs by MTT assay; assay type: toxicity; details: L02 cells and HepG2 cells, read-out: RatioGI50
assay-metric: selectivity ratio at 48 h
Just the number.

Problem: Provide measured selectivity ratio at 48 h value, entry: COc1ccc(C2CC(=O)NC3=C2C(=O)C(=O)c2ccccc23)cc1O (stereo unspecified)
Solution: 2

###

biological target: UniProt P15559; test: Substrate activity at recombinant human C-terminal His-tagged NQO1 (1 to 274 residues) expressed in Escherichia coli assessed as enzyme activity by measuring oxidation of NADPH incubated for 5 mins measured per micromol of enzyme every 5 sec for 1 mins by UV-visible spectrophotometry
assay-metric: Activity (µmol/min)

compound	tested-on	Activity, µmol/min
CCCCCC1CC(=O)NC2=C1C(=O)C(=O)c1ccccc12 (stereo not drawn)	UniProt P15559	175
O=C1CC(c2c(F)cccc2F)C2=C(N1)c1ccccc1C(=O)C2=O (stereo not drawn)	UniProt P15559	160
COc1ccc(C2CC(=O)NC3=C2C(=O)C(=O)c2ccccc23)cc1F (stereo not drawn)	UniProt P15559	192

###

target: NAD(P)H dehydrogenase [quinone] 1 (Homo sapiens) (UniProt P15559); assay: Substrate activity at recombinant human C-terminal His-tagged NQO1 (1 to 274 residues) expressed in Escherichia coli assessed as enzyme activity by measuring oxidation of NADPH incubated for 5 mins measured per micromol of enzyme every 5 sec for 1 mins by UV-visible spectrophotometry
assay-metric: Activity (µmol/min)

compound	Activity (µmol/min)
Cc1ccc(C2CC(=O)NC3=C2C(=O)C(=O)c2ccccc23)cc1 (stereo not given)	275

[I] COc1cc(C2CC(=O)NC3=C2C(=O)C(=O)c2ccccc23)ccc1O (stereo not given)
[II] O=C1CC(c2cccc(O)c2)C2=C(N1)c1ccccc1C(=O)C2=O (stereo not given)
Problem: Sort I and II by Activity descending and give the first. Kindly give the label for the entry you pick.
Solution: I
(I: 1440 µmol/min, II: 509 µmol/min)

[a] Cc1cccc(C2CC(=O)NC3=C2C(=O)C(=O)c2ccccc23)c1 (stereo not given)
[b] O=C1CC(c2cccc(C(F)(F)F)c2)C2=C(N1)c1ccccc1C(=O)C2=O (stereo not given)
Problem: Sort a and b by Activity descending and give the first. Kindly give the label for the entry you pick.
Solution: b

These data points were gathered from ChEMBL document CHEMBL4765339.
